# Tested Target: T1, human SIRPα v1 ECD recombinant protein (human, UniProt P78324 31-373)
# T1 construct: extracellular domain; Coated on the ELISA plate
# T1 sequence (P78324 31-373): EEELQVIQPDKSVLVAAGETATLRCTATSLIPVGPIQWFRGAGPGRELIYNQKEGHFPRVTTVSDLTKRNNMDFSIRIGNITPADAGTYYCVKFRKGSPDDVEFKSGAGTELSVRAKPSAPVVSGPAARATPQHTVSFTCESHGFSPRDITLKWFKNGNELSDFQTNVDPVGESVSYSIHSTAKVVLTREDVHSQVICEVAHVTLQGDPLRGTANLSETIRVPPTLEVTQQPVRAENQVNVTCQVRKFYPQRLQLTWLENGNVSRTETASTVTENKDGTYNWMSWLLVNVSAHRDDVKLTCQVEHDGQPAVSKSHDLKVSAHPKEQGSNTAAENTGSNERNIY
# Assay Remarks: competitive ELISA, plate-coated human SIRPα v1 ECD; blocked ligand: mFc tagged human CD47 ECD
Quantity: IC50 (nM)
Answers are plain numbers, in nM.

Binder: Humanized anti-SIRPα antibody hu025.033 (antibody, V domains shown, Humanized from C25) VH: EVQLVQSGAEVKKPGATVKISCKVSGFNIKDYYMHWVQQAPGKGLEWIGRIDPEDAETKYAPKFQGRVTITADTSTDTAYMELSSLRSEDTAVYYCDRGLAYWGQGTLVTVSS VL: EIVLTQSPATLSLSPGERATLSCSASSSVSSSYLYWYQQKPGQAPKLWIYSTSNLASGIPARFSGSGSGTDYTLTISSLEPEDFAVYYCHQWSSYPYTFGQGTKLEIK
Quantity: IC50
Unit: nM
Observed: 2.22
//
Binder: Humanized anti-SIRPα antibody hu025.059 (antibody, V domains shown, Humanized from C25) VH: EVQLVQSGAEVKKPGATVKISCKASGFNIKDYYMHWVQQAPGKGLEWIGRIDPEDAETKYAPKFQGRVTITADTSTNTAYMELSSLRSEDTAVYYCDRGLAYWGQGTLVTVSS VL: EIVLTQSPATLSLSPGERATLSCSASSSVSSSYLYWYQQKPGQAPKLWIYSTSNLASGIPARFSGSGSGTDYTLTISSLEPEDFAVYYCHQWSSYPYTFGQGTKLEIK
Quantity: IC50
Unit: nM
Observed: 2.48

Quick check: IC50 of Humanized anti-SIRPα antibody hu025.060 (antibody, V domains shown, Humanized from C25) VH: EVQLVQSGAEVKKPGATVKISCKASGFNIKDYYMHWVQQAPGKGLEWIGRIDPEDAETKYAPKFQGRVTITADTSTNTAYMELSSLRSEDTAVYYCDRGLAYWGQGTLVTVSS VL: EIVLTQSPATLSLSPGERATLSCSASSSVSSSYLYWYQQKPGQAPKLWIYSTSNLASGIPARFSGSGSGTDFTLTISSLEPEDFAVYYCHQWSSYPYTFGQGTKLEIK ?
2.15
